- Run conditions: mouse, microsomes
- Description: Metabolic stability in mouse liver microsomes assessed as clearance
Items are presented alongside their recorded CLH.

Example cases with answers are listed next.
| Smiles | Parameter measured | Result |
| --- | --- | --- |
| CC(=O)NCC#CCN(C(=O)Cc1ccc(C(F)(F)F)cc1C(F)(F)F)c1ccccc1 | CLH | > 832 µL/min/mg |
| CN(C(=O)Cn1nc2c(c1C(F)(F)F)C(C)(C)CC2)c1ccccc1 | CLH | > 555 µL/min/mg |

Task item: Can you look up the measured CLH of CN(C(=O)Cn1nc2c(c1C(F)(F)F)CCCC2)c1ccccc1 for me?
Reply: > 555 µL/min/mg

====

- Run conditions: mouse, microsomes
Parameter measured: CLH

Task item: Can you look up the measured CLH of CC1CCc2nn(CC(=O)N(C)c3ccccc3)c(C(F)(F)F)c21 (centres undefined) for me?
Reply: > 555 µL/min/mg

Task item: Can you look up the measured CLH of CN(C(=S)Cn1nc2c(c1C(F)(F)F)CCC2)c1ccccc1 for me?
Reply: > 555 µL/min/mg

Task item: Can you look up the measured CLH of CN(C(=O)Cn1nc2c(c1C(F)(F)F)CCC2(C)C)c1ccccc1 for me?
Reply: > 832 µL/min/mg

Task item: Can you look up the measured CLH of CN(C(=O)Cn1nc2c(c1C(F)(F)F)CC(C)(C)C2)c1ccccc1 for me?
Reply: > 555 µL/min/mg

Origin of values: ChEMBL document CHEMBL5108047
